experimental_details: Cytotoxicity against human ChaGo cells after 3 days by MTT assay
Type: functional, cell-based
study_conditions: 72 h
metric_name: IC50

> print(dat)
                               query.smiles  meas.value
1  C=C1C(=O)O[C@@H]2C[C@@H]3[C@]4(CC[C@]5(C)[C@@H]([C@H](C)Cc6cc(C)co6)CC[C@@]35C)C[C@]4(CCC(=O)O)[C@H]12   1.6 µg/mL
2  C=C1C(=O)O[C@@H]2[C@H](O)[C@@H]3[C@]4(CC[C@]5(C)[C@@H]([C@H](C)Cc6cc(C)co6)CC[C@@]35C)C[C@]4(CCC(=O)OC)[C@H]12   4.4 µg/mL
3  C=C1C(=O)O[C@@H]2C[C@@H]3[C@]4(CC[C@]5(C)[C@@H]([C@H](C)Cc6cc(C)co6)CC[C@@]35C)C[C@]4(CCC(=O)OC)[C@H]12   > 5 µg/mL
4  C=C(CO)[C@@H]1CC[C@@H]2[C@]3(CC[C@]4(C)[C@@H]([C@H](C)CC=CC(C)(C)O)CC[C@@]24C)C[C@]13CCC(=O)O   > 5 µg/mL
